assay: Half life in rat at 10 mg/kg, po; type: ADME, organism-based; conditions: in vivo
QUANTITY: half-life

SAMPLE_SMILES: C/C(=C\c1noc(Cn2cnc3ncn(C)c3c2=O)n1)c1ccc(Cl)cc1
RECORDED_VALUE: 10 h

---

assay: Clearance in rat at 0.5 mg/kg, iv as single dose; assay type: ADME, organism-based; conditions: in vivo
QUANTITY: clearance (mL/min/kg)

SAMPLE_SMILES: O=c1c2cccnc2ncn1Cc1nc(CCc2ccc(Cl)cc2)no1
QUANTITY: clearance
RECORDED_VALUE: 98.3
--
SAMPLE_SMILES: Cn1cnc2ncn(Cc3nc(CCc4ccc(Cl)cc4)no3)c(=O)c21
QUANTITY: clearance
RECORDED_VALUE: 41.7
--
SAMPLE_SMILES: O=c1c2cccnc2ncn1Cc1noc(CCc2ccc(Cl)cc2)n1
QUANTITY: clearance
RECORDED_VALUE: 36.7

---

test system: Rattus norvegicus; assay: In vivo inhibition of TRPA1 in Harlan Sprague-Dawley rat model of AITC-induced flinching assessed as unbound plasma concentration based IC50; format: functional, organism-based
pIC50: −log10 of the molar value.

SAMPLE_SMILES: Cn1cnc2ncn(Cc3nc(CCc4ccc(Cl)cc4)no3)c(=O)c21
pIC50: 6.46

---

Entries and their EC50 values follow.
biological target: Transient receptor potential cation channel subfamily A member 1 (Rattus norvegicus, UniProt Q6RI86); experiment: Agonist activity at rat TRPA1 expressed in tetracycline-inducible T-REx expression system transfected CHO cells by 45Ca2+ uptake assay; assay type: cell-based
Sequence (Q6RI86 whole entry): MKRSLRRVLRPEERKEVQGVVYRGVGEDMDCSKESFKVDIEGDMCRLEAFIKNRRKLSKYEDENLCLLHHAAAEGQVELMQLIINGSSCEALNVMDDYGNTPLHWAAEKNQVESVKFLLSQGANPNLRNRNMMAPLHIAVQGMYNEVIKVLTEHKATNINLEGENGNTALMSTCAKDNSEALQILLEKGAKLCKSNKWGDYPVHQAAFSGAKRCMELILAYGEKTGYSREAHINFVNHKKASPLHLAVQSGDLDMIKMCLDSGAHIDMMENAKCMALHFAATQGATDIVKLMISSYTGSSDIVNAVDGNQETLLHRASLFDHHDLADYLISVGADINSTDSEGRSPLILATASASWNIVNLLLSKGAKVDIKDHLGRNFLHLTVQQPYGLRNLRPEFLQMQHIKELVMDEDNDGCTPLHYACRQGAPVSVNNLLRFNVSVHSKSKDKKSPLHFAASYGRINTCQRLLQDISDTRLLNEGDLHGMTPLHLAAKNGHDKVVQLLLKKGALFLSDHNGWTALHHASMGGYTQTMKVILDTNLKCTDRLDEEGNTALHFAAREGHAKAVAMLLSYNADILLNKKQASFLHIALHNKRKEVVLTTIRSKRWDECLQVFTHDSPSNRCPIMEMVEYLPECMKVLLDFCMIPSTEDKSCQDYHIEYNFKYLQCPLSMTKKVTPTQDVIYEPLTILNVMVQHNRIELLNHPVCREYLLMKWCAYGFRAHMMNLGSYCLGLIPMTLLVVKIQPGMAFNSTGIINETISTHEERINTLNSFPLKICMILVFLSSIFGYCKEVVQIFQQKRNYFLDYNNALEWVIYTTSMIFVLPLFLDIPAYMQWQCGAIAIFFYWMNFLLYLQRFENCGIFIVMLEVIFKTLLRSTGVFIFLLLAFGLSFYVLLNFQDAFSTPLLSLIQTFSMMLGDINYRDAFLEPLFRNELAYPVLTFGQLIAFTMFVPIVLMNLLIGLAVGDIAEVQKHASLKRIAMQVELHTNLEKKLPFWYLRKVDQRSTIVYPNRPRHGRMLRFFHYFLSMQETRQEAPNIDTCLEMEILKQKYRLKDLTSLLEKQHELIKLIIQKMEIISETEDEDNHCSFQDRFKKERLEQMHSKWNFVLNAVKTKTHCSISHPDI
QUANTITY: EC50

SAMPLE_SMILES: O=c1c2cccnc2ncn1Cc1nc(CCc2ccc(Cl)cc2)no1
QUANTITY: EC50
RECORDED_VALUE: > 40 µM
--
SAMPLE_SMILES: O=c1c2cccnc2ncn1Cc1noc(CCc2ccc(Cl)cc2)n1
QUANTITY: EC50
RECORDED_VALUE: > 40 µM
--
SAMPLE_SMILES: Cc1cccc2c(=O)n(CC(=O)NCCc3ccc(OC(F)F)cc3)cnc12
QUANTITY: EC50
RECORDED_VALUE: > 47 µM
--
SAMPLE_SMILES: C/C(=C\c1noc(Cn2cnc3ncn(C)c3c2=O)n1)c1ccc(Cl)cc1
QUANTITY: EC50
RECORDED_VALUE: > 40 µM
--
SAMPLE_SMILES: Cn1cnc2ncn(Cc3nc(CCc4ccc(Cl)cc4)no3)c(=O)c21
QUANTITY: EC50
RECORDED_VALUE: > 40 µM

---

target: Cytochrome P450 3A4 (Homo sapiens, UniProt P08684)
Sequence (P08684 whole entry): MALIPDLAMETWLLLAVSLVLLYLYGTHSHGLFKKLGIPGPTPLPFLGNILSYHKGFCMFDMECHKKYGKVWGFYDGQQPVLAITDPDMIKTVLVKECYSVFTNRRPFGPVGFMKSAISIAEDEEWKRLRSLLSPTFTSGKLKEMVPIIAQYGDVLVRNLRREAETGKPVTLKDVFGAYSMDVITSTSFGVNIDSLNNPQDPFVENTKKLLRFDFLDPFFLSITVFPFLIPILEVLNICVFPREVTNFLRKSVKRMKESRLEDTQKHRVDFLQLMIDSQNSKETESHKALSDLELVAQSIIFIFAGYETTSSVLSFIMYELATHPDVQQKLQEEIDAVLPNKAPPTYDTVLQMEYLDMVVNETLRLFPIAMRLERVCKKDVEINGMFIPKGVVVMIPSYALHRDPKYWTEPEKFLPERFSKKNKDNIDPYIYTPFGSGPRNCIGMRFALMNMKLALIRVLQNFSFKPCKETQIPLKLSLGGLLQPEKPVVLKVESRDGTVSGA
QUANTITY: IC50

SAMPLE_SMILES: Cn1cnc2ncn(Cc3nc(CCc4ccc(Cl)cc4)no3)c(=O)c21
TEST_SYSTEM: Cytochrome P450 3A4 (Homo sapiens, UniProt P08684)
RECORDED_VALUE: > 27 µM

---

assay: AUC (infinity) in rat at 30 mg/kg, po; type: ADME, organism-based; design: dose 30 mg/kg, time infinity, route oral; details: in vivo
# AUC(0-inf) annotations

SAMPLE_SMILES: O=c1c2cccnc2ncn1Cc1noc(CCc2ccc(Cl)cc2)n1
AUC(0-inf) [µM·h]: 19.2

SAMPLE_SMILES: Cn1cnc2ncn(Cc3nc(CCc4ccc(Cl)cc4)no3)c(=O)c21
AUC(0-inf) [µM·h]: 19.8

SAMPLE_SMILES: C/C(=C\c1nc(Cn2cnc3ncccc3c2=O)no1)c1ccc(Cl)cc1
AUC(0-inf) [µM·h]: 94.9
